Test system: EKVX NSCLC
method: NCI tumour cell line growth inhibition, 48 h
Where a SMILES comes first, the peptide text is derived from it. The star is where a group is joined. Cbz = O=C(OCc1ccccc1)*
Hi there, I'd appreciate the recorded TGI for every entry that follows.

If you can, please state the reported TGI value of CCOC(=O)CCC(NC(=O)OCc1ccccc1)C(=O)NC(CCC(=O)OCC)C(=O)OCC (stereo unspecified) (Cbz-Glu(OEt)-Glu(OEt)-OEt; configuration not given here) .
> 100 µM

Sample "COc1ccc(/C=C/c2cnccn2)cc1OC" — what was its TGI?
> 10 µM

For "CCOC(=O)c1ccc(-c2ccc(Cl)cc2)[nH]1" , what is its reported TGI?
> 10 µM

Record TGI per entry; entries follow.
1. CSc1ccc2c(cc1=O)[C@@H](NC(=O)c1cc(O)c(O)c(O)c1)CCc1cc(O)c(O)c(O)c1-2
2. CC(=O)O[C@@]12CO[C@@H]1CC(O)[C@@]1(C)C(=O)[C@H](O)C3=C(C)C(O)C[C@@](O)(C(OC(=O)c4ccccc4)C12)C3(C)C (stereo partly specified)
3. CC1=NC(C)(COC(=O)C2(C)NC(C)(CO)CO2)COC1=O (stereo unspecified)
4. CCCCCCCCCCCCCCCCCCC1=C(O)C(=O)C=C(OC)C1=O
5. COc1cc2c3c(n(CCCN(CCO)CCO)c(=O)c2cc1OC)-c1cc2c(cc1C3=O)OCO2
6. CN1CCCOC(c2ccc(Cl)cc2)O1 (stereo unspecified)
7. C/C=C\C(CC(=O)NCC(=O)c1c[nH]c2ccccc12)CC(=O)OC (stereo unspecified)
8. CN1CCc2c(sc3[nH]c(=S)[nH]c(=S)c23)C1

1: 56.7 µM; 2: > 100 µM; 3: > 100 µM; 4: > 100 µM; 5: 13.6 µM; 6: > 100 µM; 7: > 100 µM; 8: > 100 µM

---

System: HCT-116 colon
method: NCI tumour cell line growth inhibition, 48 h
Assign TGI to each entry below.

Sample records with TGI:
Param readout = TGI; param system = HCT-116 colon; param query = "CN1CCN(/C(N)=C(\C#N)C(=O)Nc2ccc(Cl)cc2)CC1" ; response: value
> 100 µM

What reported TGI corresponds to CCC[CH2][Sn]1([CH2]CCC)[O]CC(COc2c(Cl)cc(Cl)cc2Cl)[O]1 (stereo not drawn) on HCT-116 colon?
3.03 µM

Record lookup: for HCT-116 colon, what TGI belongs to "NCCCN(CCCN)CCc1cn(C(=O)c2ccccc2)cn1" ?
> 51.2 µM

Hi, could you look up TGI for each item in my list?
1. N#Cc1c(-c2ccco2)cc(-c2ccc(N)cc2)[nH]c1=O
2. N[C@H](Cc1ccc2oc3cc(=O)c4ccccc4c-3nc2c1)C(=O)O

1: > 100 µM; 2: > 100 µM

// for each molecule below, give its TGI
1. COc1cc2c3c(n(CCCN(C)CCO)c(=O)c2cc1OC)-c1cc2c(cc1C3=O)OCO2
2. Nc1nc(SCc2ccccc2Cl)c2[nH]cnc2n1
3. COc1cc(/C=C2\CCC/C(=C\c3ccc(OCC4CO4)c(OC)c3)C2=O)ccc1OCC1CO1 (stereo not drawn)

1. 30.7 µM
2. > 100 µM
3. 6.01 µM
